pIC50: −log10 of the molar value.
Collected pIC50 for UniProtKB Q12866 across several studies; molecules listed below.

Chem smiles | Value observed
Nc1ncc(-c2cnn(C3CCN(C(=O)Cc4ccccc4)CC3)c2)cc1-c1ncc(-c2cccc(Cl)c2)o1 | 5.00 to 6.00
COc1ccn(-c2ccc(F)cc2)c(=O)c1C(=O)Nc1ccc(Oc2ccnc3cc(OCC(C)(C)O)c4c(c23)OCCO4)cc1Cl | ≥ 7.30
COc1cc2nccc(Oc3ccc(NC(=O)c4cn(C5CCOCC5)cc(-c5ccc(C)cc5)c4=O)nc3)c2cc1OC | 8.40

We now examine a further molecule.
Request the reported pIC50 associated with COc1cn(-c2ccc(F)cc2C)nc1C(=O)Nc1ccc(Oc2ccnc3cc(OC)c4c(c23)OCCO4)c(F)c1 6.30 to 7.30
